Method description: Hemolytic activity against rabbit RBC after 60 mins by spectrophotometry
Type: ADME, cell-based, Oryctolagus cuniculus, Erythrocyte
Condition: rabbit red blood cells, read-out: CC50
Property measured: HC50 at 1 h (µM)
Give a bare numeral; the unit µM is implied.

Prompt line: Give the reported HC50 at 1 h for this molecule. CC1(C)CC[C@]2(C(=O)O)[C@H](O)C[C@]3(C)C(=CC[C@@H]4[C@@]5(C)CC[C@H](O)C(C)(C)[C@@H]5CC[C@]43C)[C@@H]2C1
Response line: 15

---

Test system: Hepatitis C virus
Method description: Antiviral activity against pseudo HCV infected in human 293T cells assessed as inhibition of HCV pseudo particles entry at 10 uM after 72 hrs by luciferase reporter gene assay
Format: functional, Hepacivirus hominis
Condition: HEK-293T
Property measured: inhibition at 10 µM
Don't forget the unit after the number, please.

Compound	Result
CC1(C)CC[C@]2(C(=O)O)[C@H](O)C[C@]3(C)C(=CC[C@@H]4[C@@]5(C)CC[C@H](O)[C@@](C)(CO)[C@@H]5CC[C@]43C)[C@@H]2C1	20%
CC1(C)CC[C@]2(C(=O)O)CC[C@]3(C)C(=CC[C@@H]4[C@@]5(C)C[C@@H](O)[C@H](O)C(C)(C)[C@@H]5CC[C@]43C)[C@@H]2C1	0%

Prompt line: Give the reported inhibition at 10 µM for this compound. COC(=O)[C@]12CCC(C)(C)C[C@H]1C1=CC[C@@H]3[C@@]4(C)CC[C@H](O)C(C)(C)[C@@H]4CC[C@@]3(C)[C@]1(C)CC2 [METHYL OLEANOLATE]
Response line: 60%

---

System: Hepatitis C virus
Method description: Antiviral activity against pseudo HCV infected in human 293T cells assessed as inhibition of HCV pseudo particles entry at 10 uM after 72 hrs by luciferase reporter gene assay
Type: functional, Hepacivirus hominis
Condition: HEK-293T
Property measured: inhibition at 10 µM (%)
Give a bare numeral; the unit % is implied.

The examples below pair each entry with its known result.
Compound	Property measured	Readout number
CC1(C)CC[C@]2(C(=O)O)CC[C@]3(C)C(=CC[C@@H]4[C@@]5(C)CC[C@H](O)[C@@](C)(C(=O)O)[C@@H]5CC[C@]43C)[C@@H]2C1	inhibition at 10 µM	0
CC1(C)CC[C@]2(C(=O)O)CC[C@]3(C)C(=CC[C@@H]4[C@@]5(C)C[C@@H](O)[C@H](O)[C@@](C)(CO)[C@@H]5CC[C@]43C)[C@@H]2C1 [ARJUNOLIC ACID]	inhibition at 10 µM	0
CC1(C)CC[C@]2(C(=O)O)CC[C@]3(C)C(=CC[C@@H]4[C@@]5(C)CCC(=O)C(C)(C)[C@@H]5CC[C@]43C)[C@@H]2C1 [OLEANONIC ACID]	inhibition at 10 µM	0
CC1(C)CC[C@]2(C(=O)O)[C@H](O)C[C@]3(C)C(=CC[C@@H]4[C@@]5(C)CC[C@H](O)C(C)(C)[C@@H]5CC[C@]43C)[C@H]2C1 [ECHINOCYSTIC ACID]	inhibition at 10 µM	90
CC1(C)CC[C@]2(C(=O)NCCCC[C@H](N)C(=O)O)CC[C@]3(C)C(=CC[C@@H]4[C@@]5(C)CC[C@H](O)C(C)(C)[C@@H]5CC[C@]43C)[C@@H]2C1	inhibition at 10 µM	60

Prompt line: Give the reported inhibition at 10 µM for this compound. CC1(C)[C@@H](O)CC[C@]2(C)[C@H]3CC=C4[C@@H]5C[C@](C)(CO)CC[C@]5(C(=O)O)[C@H](O)C[C@@]4(C)[C@]3(C)CC[C@@H]12
Response line: 90

Prompt line: Give the reported inhibition at 10 µM for this compound. CC(=O)O[C@H]1CC[C@]2(C)[C@H]3CC=C4[C@@H]5CC(C)(C)CC[C@]5(C(=O)O)CC[C@@]4(C)[C@]3(C)CC[C@H]2C1(C)C [ACETYL OLEANOLIC ACID]
Response line: 10

Source of measurements: ChEMBL document CHEMBL2385072
